Where do the numbers come from? From patent EP0414806B1.

- PROTOCOL DESCRIPTION: Tissue distribution of cephapirin activity after intravenous administration (agar well diffusion bioassay)
- Format: in vivo, mice
- ASSAY CONTEXT: mouse; SPLEEN; time 10; 200 mg/kg intravenous; mean ± S.E.M.
MEASURE: concentration at 10 h

Report concentration at 10 h for CC(=O)OCC1=C(C(=O)O)N2C(=O)[C@@H](NC(=O)CSc3ccncc3)[C@H]2SC1 [Free Cephapirin, cephapirin sodium]
< 500 ng/g

---

- PROTOCOL DESCRIPTION: Tissue distribution of cephapirin activity after intravenous administration (agar well diffusion bioassay)
- Format: in vivo, mice
- ASSAY CONTEXT: mouse; KIDNEY; time 10; 200 mg/kg intravenous; mean ± S.E.M.
- Experimental: The antibacterial activity was measured by an agar well diffusion bioassay, though other assays for antibacterial activity or chemical, or immunological assays for the drug substance are known to those skilled in the art. […] The diameters of the zones of inhibited growth around the wells were proportional to the concentration of antibiotic in the test sample and were quantitated by comparison with known, standard antibiotic solutions.
MEASURE: concentration at 10 h

Report concentration at 10 h for CC(=O)OCC1=C(C(=O)O)N2C(=O)[C@@H](NC(=O)CSc3ccncc3)[C@H]2SC1 [Free Cephapirin, cephapirin sodium]
< 500 ng/g
